Reported values of pIC50 for individual entries
- measuredOn: FGFR4 (Homo sapiens (Human))
- Sequence (P22455 22-802): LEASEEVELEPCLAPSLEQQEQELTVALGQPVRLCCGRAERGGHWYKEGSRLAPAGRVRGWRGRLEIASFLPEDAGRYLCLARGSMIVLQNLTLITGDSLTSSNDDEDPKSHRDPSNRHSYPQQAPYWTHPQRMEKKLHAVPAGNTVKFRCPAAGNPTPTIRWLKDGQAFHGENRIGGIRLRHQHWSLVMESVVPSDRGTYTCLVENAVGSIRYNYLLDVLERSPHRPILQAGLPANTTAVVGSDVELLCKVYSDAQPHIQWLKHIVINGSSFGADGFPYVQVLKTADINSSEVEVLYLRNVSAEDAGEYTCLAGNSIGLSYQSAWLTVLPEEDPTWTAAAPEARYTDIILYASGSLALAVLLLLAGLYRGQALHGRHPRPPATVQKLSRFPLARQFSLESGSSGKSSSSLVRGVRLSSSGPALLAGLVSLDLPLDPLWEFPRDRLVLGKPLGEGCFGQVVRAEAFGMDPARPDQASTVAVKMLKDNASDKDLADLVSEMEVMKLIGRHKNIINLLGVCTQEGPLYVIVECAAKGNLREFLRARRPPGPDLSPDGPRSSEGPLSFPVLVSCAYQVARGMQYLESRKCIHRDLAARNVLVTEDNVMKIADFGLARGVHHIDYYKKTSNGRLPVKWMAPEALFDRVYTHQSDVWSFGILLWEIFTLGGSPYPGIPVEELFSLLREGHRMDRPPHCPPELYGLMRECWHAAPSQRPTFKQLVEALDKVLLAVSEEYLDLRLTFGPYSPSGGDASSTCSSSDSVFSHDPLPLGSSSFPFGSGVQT
- test: FGFR Enzymatic Assay (FRET peptide phosphorylation), FGFR4
- Assay type: biochemical
- measurementContext: pre-incubated for 4 hours
pIC50: −log10 of the molar value.

Example results:
{"compound": "COc1cc(OC)c(F)c(N2Cc3cnc(-c4cn(CCN(C)C)nc4C)cc3C3(CC3)C2=O)c1F", "measuredOn": "FGFR4 (Homo sapiens (Human))", "pIC50": "6.70 to 7.52"}
{"compound": "COc1cc(OC)c(F)c(N2Cc3cnc(-c4ccccc4)cc3C3(CC3)C2=O)c1F", "measuredOn": "FGFR4 (Homo sapiens (Human))", "pIC50": "7.52 to 8.00"}
{"compound": "COc1cc(OC)c(F)c(N2Cc3cnc(-c4cn(C)nc4C)cc3N(c3cccc(F)c3)C2=O)c1F", "measuredOn": "FGFR4 (Homo sapiens (Human))", "pIC50": "6.70 to 7.52"}
{"compound": "COc1cc(OC)c(F)c(N2Cc3cnc(-c4cn(C)nc4C)cc3N(c3ccc(C#N)cn3)C2=O)c1F", "measuredOn": "FGFR4 (Homo sapiens (Human))", "pIC50": "6.70 to 7.52"}
{"compound": "COc1cc(OC)c(F)c(N2Cc3cnc(-c4cncc(Cl)c4)cc3C3(CC3)C2=O)c1F", "measuredOn": "FGFR4 (Homo sapiens (Human))", "pIC50": "7.52 to 8.00"}
{"compound": "COc1cc(OC)c(F)c(N2Cc3cnc(-c4cn(C)nc4C)cc3N(c3cc(F)cc(F)c3)C2=O)c1F", "measuredOn": "FGFR4 (Homo sapiens (Human))", "pIC50": "6.70 to 7.52"}
{"compound": "COc1cc(OC)c(F)c(N2Cc3cnc(-c4cn(C)nc4C)cc3N(c3cncnc3)C2=O)c1F", "measuredOn": "FGFR4 (Homo sapiens (Human))", "pIC50": "< 6.70"}
{"compound": "COc1cc(OC)c(F)c(N2Cc3cnc(-c4cn(C)nc4C)cc3N(C3CCOC3)C2=O)c1F (stereo not drawn)", "measuredOn": "FGFR4 (Homo sapiens (Human))", "pIC50": "6.70 to 7.52"}
{"compound": "COc1cc(OC)c(F)c(N2Cc3cnc(-c4cn(C)nc4C)cc3N(CC3CC(=O)N(C)C3)C2=O)c1F (stereo not drawn)", "measuredOn": "FGFR4 (Homo sapiens (Human))", "pIC50": "6.70 to 7.52"}
{"compound": "COc1cc(OC)c(F)c(N2Cc3cnc(-c4cn(C)nc4C)cc3N(c3ccc4[nH]ncc4c3)C2=O)c1F", "measuredOn": "FGFR4 (Homo sapiens (Human))", "pIC50": "6.70 to 7.52"}

Query: pIC50; subject: COc1cc(OC)c(F)c(N2Cc3cnc(-c4cn(C)nc4C)cc3N(c3ncccn3)C2=O)c1F
6.70 to 7.52

Could you do the same for CCN1C(=O)N(c2c(F)c(OC)cc(OC)c2F)Cc2cnc(-c3ccccc3)cc21 , please?
7.52 to 8.00

Could you do the same for COc1cc(OC)c(F)c(N2Cc3cnc(-c4cn(C)nc4C)cc3N(Cc3cnn(CC#N)c3)C2=O)c1F , please?
6.70 to 7.52

Could you do the same for COc1cc(OC)c(F)c(N2Cc3cnc(-c4cn(C)nc4C)cc3N(c3ccc4cn[nH]c4c3)C2=O)c1F , please?
6.70 to 7.52

Could you do the same for COc1cc(OC)c(F)c(N2Cc3cnc(-c4cn(C)nc4C)cc3N(c3cccc(-c4cnnn4C)c3)C2=O)c1F , please?
6.70 to 7.52
